Form field: % inhibition Apo pol 10' (one value per entry).
target_under_test: P. falciparum apicoplast DNA polymerase (Pf-apPOL) (Plasmodium falciparum, UniProt Q8ILY1)
Sequence (Q8ILY1 entry or part of it): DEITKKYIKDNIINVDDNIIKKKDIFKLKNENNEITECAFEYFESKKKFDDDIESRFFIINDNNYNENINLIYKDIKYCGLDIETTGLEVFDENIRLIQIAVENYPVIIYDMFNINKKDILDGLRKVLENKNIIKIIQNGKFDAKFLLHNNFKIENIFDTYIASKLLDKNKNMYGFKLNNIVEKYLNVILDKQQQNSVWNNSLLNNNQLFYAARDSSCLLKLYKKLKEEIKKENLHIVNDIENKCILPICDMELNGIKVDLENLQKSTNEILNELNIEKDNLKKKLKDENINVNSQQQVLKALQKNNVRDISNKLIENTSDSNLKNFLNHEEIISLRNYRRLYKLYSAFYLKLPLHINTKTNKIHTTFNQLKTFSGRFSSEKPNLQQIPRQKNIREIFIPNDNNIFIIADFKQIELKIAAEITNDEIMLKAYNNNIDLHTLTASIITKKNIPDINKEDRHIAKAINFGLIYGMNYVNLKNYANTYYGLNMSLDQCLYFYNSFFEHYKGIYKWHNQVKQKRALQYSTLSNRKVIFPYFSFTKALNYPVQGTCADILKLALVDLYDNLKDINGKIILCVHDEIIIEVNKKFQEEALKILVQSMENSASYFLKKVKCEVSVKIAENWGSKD
test: Fluorescence-based high-throughput DNA polymerase assay (molecular beacon), primary screen and dose-response
Type: biochemical
test_settings: DRC-1; 10'; concentration 5
From the text: The HT assay employs a molecular beacon, a stem-loop DNA template with a Cy3 dye and the Black Hole Quencher on the 3′ and 5′ ends of the DNA, respectively. Pf-apPOL concentration is based on a calculated absorptivity of ε280 = 56750 M^−1 cm^−1. […] To identify apPOL inhibitors we utilised our previously developed high-throughput DNA polymerase assay. […] The assay accurately recapitulates the kinetic behaviour of apPOL, as measured through more conventional low-throughput gel-based assays. […]
Express the result in % but write the number alone.

Study these solved cases before continuing.
[[record]]
molecule = "CCSc1nnc(NC(=O)Cc2csc(NC(=O)c3cnccn3)n2)s1"
target_under_test = "P. falciparum apicoplast DNA polymerase (Pf-apPOL) (Plasmodium falciparum, UniProt Q8ILY1)"
observed_property = "% inhibition Apo pol 10'"
experimental_result = -2.236

[[record]]
molecule = "CCOC(=O)C1=C2c3cc(OC)c(OC)cc3CC(C)(C)N2C(=O)C1=O"
target_under_test = "P. falciparum apicoplast DNA polymerase (Pf-apPOL) (Plasmodium falciparum, UniProt Q8ILY1)"
observed_property = "% inhibition Apo pol 10'"
experimental_result = 6.068

[[record]]
molecule = "COc1ccc(C=C2Oc3c(ccc4c3CN(c3ccc5c(c3)OCO5)CO4)C2=O)cc1OC"
target_under_test = "P. falciparum apicoplast DNA polymerase (Pf-apPOL) (Plasmodium falciparum, UniProt Q8ILY1)"
observed_property = "% inhibition Apo pol 10'"
experimental_result = 10.8011

[[record]]
molecule = "O=C1C(=Cc2ccncc2)Oc2c1ccc1c2CN(Cc2ccc3c(c2)OCO3)CO1"
target_under_test = "P. falciparum apicoplast DNA polymerase (Pf-apPOL) (Plasmodium falciparum, UniProt Q8ILY1)"
observed_property = "% inhibition Apo pol 10'"
experimental_result = 7.288

[[record]]
molecule = "O=C(CSc1nnc(-c2ccncc2)[nH]1)c1ccc(O)c(O)c1"
target_under_test = "P. falciparum apicoplast DNA polymerase (Pf-apPOL) (Plasmodium falciparum, UniProt Q8ILY1)"
observed_property = "% inhibition Apo pol 10'"
experimental_result = 82.0224


Input line: % inhibition Apo pol 10' lookup needed for `CCCCc1ccc(NC(=O)CSc2nc(O)c(C#N)c(C3CCCCC3)n2)c(C)c1` , thanks.
Output line: 13.3371

Input line: Give its % inhibition Apo pol 10' value. Item: `COc1ccc(-c2cc3nc4c(c(=O)n3[nH]2)CCN(C(=O)CCc2ccccc2)C4)cc1`
Output line: 30

Input line: What value of measured % inhibition Apo pol 10' is listed for CN(C)C1C(c2ccccc2)=C(c2ccccc2)SC(c2ccccc2)C1[N+](=O)[O-] (centres unmarked) ?
Output line: 23.3831

Input line: Suppose we examine the molecule `Nc1c(S(=O)(=O)O)cc(Nc2ccccc2)c2c1C(=O)c1ccccc1C2=O` ; what % inhibition Apo pol 10' value has been reported?
Output line: 47.4944

Input line: Please report the recorded % inhibition Apo pol 10' for `Cc1cc(C)c(O)c(/N=C/c2cc([N+](=O)[O-])cc(Br)c2O)c1` .
Output line: -1.228

---

target_under_test: UniProt Q8ILY1
test: Fluorescence-based high-throughput DNA polymerase assay (molecular beacon), primary screen and dose-response
Format: biochemical
test_settings: DRC-2; 90'; concentration 10
Reported values of % inhibition ApPOL 90' for individual entries
Answer in %, number only, no unit symbol.

Below: 6 compounds and their reported % inhibition ApPOL 90'.
[[record]]
compound = "O=C(Cn1ccc2c(=O)[nH]ccc21)Nc1cc(F)ccc1F [Molecule 42, O=C(Cn1ccc2c1cc[nH]c2=O)Nc1cc(F)ccc1F]"
observed_property = "% inhibition ApPOL 90'"
experimental_result = 34

[[record]]
compound = "O=C(Nc1cccc(C(=O)Nc2ccc(S(=O)(=O)[O-])c3cc(S(=O)(=O)[O-])cc(S(=O)(=O)[O-])c23)c1)Nc1cccc(C(=O)Nc2ccc(S(=O)(=O)[O-])c3cc(S(=O)(=O)[O-])cc(S(=O)(=O)[O-])c23)c1.[Na+].[Na+].[Na+].[Na+].[Na+].[Na+]"
observed_property = "% inhibition ApPOL 90'"
experimental_result = 28

[[record]]
compound = "CC1(C)CC(=O)C2=C(C1)OC1=C(C(=O)CC(C)(C)C1)C2c1ccc(O)cc1"
observed_property = "% inhibition ApPOL 90'"
experimental_result = 27

[[record]]
compound = "Cc1cc(C)c(O)c(/N=C/c2cc([N+](=O)[O-])cc(Br)c2O)c1"
observed_property = "% inhibition ApPOL 90'"
experimental_result = 2.43

[[record]]
compound = "COCC(=O)Nc1c(-c2cccc(F)c2)nc2cc(C)ccn12"
observed_property = "% inhibition ApPOL 90'"
experimental_result = 38

[[record]]
compound = "COc1ccc(C(=O)N2CCc3c(nc4cc(-c5ccccc5Cl)[nH]n4c3=O)C2)cn1"
observed_property = "% inhibition ApPOL 90'"
experimental_result = 28


Input line: Record request: % inhibition ApPOL 90' value, item `CCCCc1ccc(NC(=O)CSc2nc(O)c(C#N)c(C3CCCCC3)n2)c(C)c1`
Output line: 15

---

target_under_test: P. falciparum apicoplast DNA polymerase (Pf-apPOL) (Plasmodium falciparum)
test: Fluorescence-based high-throughput DNA polymerase assay (molecular beacon), primary screen and dose-response
Assay type: biochemical
test_settings: DRC-2; 40'; concentration 10
Below is a list of entries, each paired with its recorded % inhibition Apol 40' value.
Use % as the unit, but write only the number.

Examples with answers:
[[record]]
compound = "O=[N+]([O-])/C=C/c1ccc(-c2ccc(Br)cc2)o1"
observed_property = "% inhibition Apol 40'"
experimental_result = 48

[[record]]
compound = "N#CC(C#N)=C1SCN(c2cccc(Cl)c2)CS1"
observed_property = "% inhibition Apol 40'"
experimental_result = 56

[[record]]
compound = "COc1ccc(NC(=O)Cn2ccc3c(=O)[nH]ccc32)cc1 [Molecule 13, COc1ccc(cc1)NC(=O)Cn1ccc2c1cc[nH]c2=O]"
observed_property = "% inhibition Apol 40'"
experimental_result = 41


Then this compound:
Input line: Form field - read-out: % inhibition Apol 40'; system: P. falciparum apicoplast DNA polymerase (Pf-apPOL) (Plasmodium falciparum); submitted item: O=C(Cn1ccc2c(=O)[nH]ccc21)Nc1ccccc1Cl [Molecule 19, O=C(Cn1ccc2c1cc[nH]c2=O)Nc1ccccc1Cl]
Output line: 65

---

target_under_test: P. falciparum apicoplast DNA polymerase (Pf-apPOL) (Plasmodium falciparum, UniProt Q8ILY1)
test: Fluorescence-based high-throughput DNA polymerase assay (molecular beacon), primary screen and dose-response;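 on % inhibition apPOL 180': test concentration in µM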
Assay type: biochemical
test_settings: DRC-2; concentration 2.5; 180'
observed_property: % inhibition apPOL 180'
Please provide the amount together with its unit, number first.

[[record]]
molecule = "CCCCCc1c2c(cc(O)c1C(=O)O)OC(=O)c1c(cc(OC)cc1C(=O)CCCC)O2"
observed_property = "% inhibition apPOL 180'"
experimental_result = "6%"

[[record]]
molecule = "O=C(Cc1cccs1)N1CCN(c2nc(CN3CCOCC3)cs2)CC1"
observed_property = "% inhibition apPOL 180'"
experimental_result = "1.49%"

[[record]]
molecule = "CCOc1ccc2cc(C3=NN(C(=O)CCC(=O)O)C(c4ccc(C)cc4)C3)c(=O)[nH]c2c1 (centres unmarked)"
observed_property = "% inhibition apPOL 180'"
experimental_result = "-0.06%"


Input line: What value of % inhibition apPOL 180' has been reported for the following molecule? `Nc1ncnc(NC2CCCCC2)c1[N+](=O)[O-]`
Output line: -6.58%

Input line: Any idea what % inhibition apPOL 180' was measured for `Cc1ccnc(NS(=O)(=O)c2ccc(-n3cccc3)cc2)n1` ?
Output line: 19%

---

target_under_test: P. falciparum apicoplast DNA polymerase (Pf-apPOL) (Plasmodium falciparum)
test: Fluorescence-based high-throughput DNA polymerase assay (molecular beacon), primary screen and dose-response
Assay type: biochemical
test_settings: DRC-2; 40'; concentration 2.5
Label Condition met when % inhibition Apol 40' is at or above 10%; otherwise label Condition not met.

Past entries and their recorded results:
[[record]]
compound = "Cc1nc(C)c2c(n1)N(CC1CCCCC1)C(=O)CC2"
class_name = "Condition met"

[[record]]
compound = "C=CCOc1c(Br)cc(Br)cc1/C=C1\\SC(=N)NC1=O"
class_name = "Condition met"


Input line: Check the entry COc1ccc2c(c1)C(c1ccccc1OC)CC(=O)O2 (stereo not drawn) : does % inhibition Apol 40' equal or exceed 10%?
Output line: Condition not met

Input line: Can `CCOc1ccc(/C=C2\N=C(c3cc([N+](=O)[O-])cc([N+](=O)[O-])c3)OC2=O)cc1` be said to have % inhibition Apol 40' at or above 10%?
Output line: Condition met
